growth inhibition for assorted compounds
# assay.overview: NCI Yeast Anticancer Drug Screen. Data for the sgs1 mgt1 strain (AID 161);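 further: 0% = growth of cultures given vehicle only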
# run.parameters: S. cerevisiae sgs1 mgt1 strain, at 50.0 µM, active compounds read high
About 79,000 compounds went through this panel and 15% of them were active in at least one assay; those are over-represented in the sample as a whole.
assay.endpoint: growth inhibition (%)

>  <compound>
COc1cc2c(cc1OC)C1=NN(c3ccccc3)C(=O)C1CC2 (stereo unspecified)

>  <u>
%

>  <recorded.measurement>
12.3

$$$$
>  <compound>
O=[N+]([O-])c1ccc(-c2ccc([N+](=O)[O-])cc2)cc1

>  <u>
%

>  <recorded.measurement>
7.7

$$$$
>  <compound>
O=C(O)C1NCCC1Oc1ccccc1 (stereo unspecified)

>  <u>
%

>  <recorded.measurement>
-16

$$$$
>  <compound>
N#Cc1c(CC(=O)O)cc(=O)n2c1[nH]c1ccccc12

>  <u>
%

>  <recorded.measurement>
-1.9

$$$$
>  <compound>
NC(=S)N/N=C/c1cc([N+](=O)[O-])ccc1O

>  <u>
%

>  <recorded.measurement>
25.9

$$$$
>  <compound>
CC(C)(C)c1ccccc1OC(=O)Nc1ccc(F)cc1

>  <u>
%

>  <recorded.measurement>
7.4

$$$$

---

As shown below, each of these compounds has a reported growth inhibition value.
# assay.overview: NCI Yeast Anticancer Drug Screen. Data for the mlh1 rad18 strain (AID 175)
# run.parameters: S. cerevisiae mlh1 rad18 strain growth inhibition; at 50.0 µM; active compounds read high
About 79,000 compounds went through this panel and 15% of them were active in at least one assay; those are over-represented in the sample as a whole.
assay.endpoint: growth inhibition (%)

>  <compound>
O=C(Cl)c1ccc2c(c1)C(=O)NC2=O

>  <recorded.measurement>
-16.4

$$$$
>  <compound>
COC(=O)C1=C(C(=O)OC)P2(C)(C)OC(c3ccccc3)CN2C1(c1ccccc1)c1ccccc1 (stereo unspecified)

>  <recorded.measurement>
40.9

$$$$
>  <compound>
COC1CCC(C(C)(C)C)CC1 (stereo unspecified)

>  <recorded.measurement>
-21.7

$$$$
>  <compound>
Cc1ccc(N=Nc2cc(C)c(N)cc2N)c(S(=O)(=O)O)c1

>  <recorded.measurement>
-24.5

$$$$
>  <compound>
CCCCCCCCCCCCOc1ccc2ccccc2c1

>  <recorded.measurement>
-8.15

$$$$
>  <compound>
CC1CCC/C1=C(/I)C(=O)c1ccccc1 (stereo unspecified)

>  <recorded.measurement>
-59.6

$$$$

---

# assay.overview: NCI Yeast Anticancer Drug Screen. Data for the mec2-1 strain (AID 157)
# run.parameters: S. cerevisiae mec2-1 strain, at 50.0 µM, active compounds read high
Compounds without any hit were thinned out: in the full panel of roughly 79,000, 15% have a hit.
# growth inhibition per record follows
assay.endpoint: growth inhibition (%)

>  <molecule>
C1CCCCC/C2=C(\CCCC1)CSCCCS2

>  <assay.endpoint>
growth inhibition

>  <recorded.measurement>
-19.9

$$$$
>  <molecule>
Cc1cc(S(=O)(=O)Nc2nnc3c(Cl)cc(C(F)(F)F)cn23)c(S)cc1Cl

>  <assay.endpoint>
growth inhibition

>  <recorded.measurement>
-35.2

$$$$
>  <molecule>
COC1CC(OC2C(C)OC(OC3C(C)OC(OC4C(C)OC(O[C@H]5CC[C@@]6(C)C(=CC[C@]7(O)[C@@H]6C[C@@H](OC(=O)/C=C/c6ccccc6)[C@@]6(C)[C@]7(O)CC[C@@]6(O)C(C)=O)C5)CC4OC)CC3OC)CC2OC)OC(C)C1O (stereo not given in full)

>  <assay.endpoint>
growth inhibition

>  <recorded.measurement>
19.2

$$$$
>  <molecule>
Nc1ccc(Cl)cc1Br

>  <assay.endpoint>
growth inhibition

>  <recorded.measurement>
22.4

$$$$
>  <molecule>
CC(=O)CCCO

>  <assay.endpoint>
growth inhibition

>  <recorded.measurement>
-5.75

$$$$

---

# assay.overview: NCI Yeast Anticancer Drug Screen. Data for the bub3 strain (AID 167)
# run.parameters: S. cerevisiae bub3 mutant strain, at 50.0 µM, active compounds read high
This is part of a sample that, as a whole, favours compounds with a hit. Of some 79,000 tested, about 15% had one in any assay.

>  <compound>
O=C(CSc1nc(-c2ccccc2)c(-c2ccccc2)[nH]1)NNC(=S)Nc1ccccc1

>  <growth inhibition (%)>
54.5

$$$$
>  <compound>
OC(c1ccoc1)c1cc2ccccc2s1 (stereo unspecified)

>  <growth inhibition (%)>
21.6

$$$$
>  <compound>
Cc1cc(=O)n2c(cc3cccccc32)n1

>  <growth inhibition (%)>
-23.4

$$$$
>  <compound>
Cn1c(=O)c2nc3sc4c(n3c2n(C)c1=O)C(=O)c1ccccc1C4=O

>  <growth inhibition (%)>
-11

$$$$
>  <compound>
CCC1(CC)C(=O)NN(C(=O)c2ccccc2)C1=O

>  <growth inhibition (%)>
-4.45

$$$$
>  <compound>
COc1ccc(N=Cc2c(O)c(O)c(C(C)C)c3cc(C)c(-c4c(C)cc5c(C(C)C)c(O)c(O)c(C=Nc6ccc(OC)cc6)c5c4O)c(O)c23)cc1

>  <growth inhibition (%)>
-5.75

$$$$
>  <compound>
C(=C/c1ccc(-c2ccccc2)cc1)/c1ccc(-c2ccccc2)cc1

>  <growth inhibition (%)>
24.4

$$$$
>  <compound>
CCCCOc1ccc(N)cn1

>  <growth inhibition (%)>
32.7

$$$$
>  <compound>
C=C1C(=O)OC2CC(C)C(C(CC(C)=O)OC(C)=O)=CCC12 (stereo unspecified)

>  <growth inhibition (%)>
6.1

$$$$
>  <compound>
CCOc1ccc(OCC)c(C(=O)CCC(=O)Nc2ccc(Br)cc2)c1

>  <growth inhibition (%)>
1.45

$$$$
>  <compound>
CCN1C(=O)CC(SCCSC2CC(=O)N(CC)C2=O)C1=O (stereo unspecified)

>  <growth inhibition (%)>
13.7

$$$$

---

growth inhibition listing for selected molecules.
# assay.overview: NCI Yeast Anticancer Drug Screen. Data for the rad50 strain (AID 155);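 further: 0% = growth of vehicle-only cultures of the same strain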
# run.parameters: S. cerevisiae rad50 strain growth inhibition; at 50.0 µM; active compounds read high
This is part of a sample that, as a whole, favours compounds with a hit. Of some 79,000 tested, about 15% had one in any assay. Where a SMILES comes first, the peptide text is derived from it. The star is where a group is joined. Boc = CC(C)(C)OC(=O)*; OBn = c1ccc(CO*)cc1
assay.endpoint: growth inhibition (%)

>  <molecule>
O=c1cc(O)cc2n1CCC2

>  <recorded.measurement>
5.15

$$$$
>  <molecule>
CNC(=O)NNC(=O)NC

>  <recorded.measurement>
-45.1

$$$$
>  <molecule>
O=C(O)CCSCc1ccc(I)cc1

>  <recorded.measurement>
35.1

$$$$
>  <molecule>
O=S(=O)(Cl)c1cc(Cl)ccc1Cl

>  <recorded.measurement>
24.8

$$$$
>  <molecule>
CCCCCCCC(CC#N)(CCCCC)CCCCCC (configuration not stated)

>  <recorded.measurement>
16.6

$$$$
>  <molecule>
O=S(=O)(O)c1ccc2c(N=Nc3cccc4ccccc34)c(O)c(S(=O)(=O)O)cc2c1

>  <recorded.measurement>
-2.35

$$$$
>  <molecule>
CC(NC(=O)C(NC(=O)OC(C)(C)C)C(C)C)C(=O)N1CCCC1C(=O)NCC(=O)NC(C(=O)NCC(=O)OCc1ccccc1)C(C)C (configuration not stated) (Boc-VAPGVG-OBn; configuration not given here)

>  <recorded.measurement>
-30.1

$$$$

---

List of growth inhibition values.
# assay.overview: NCI Yeast Anticancer Drug Screen. Data for the bub3 strain (AID 167)
# run.parameters: S. cerevisiae bub3 mutant strain, at 50.0 µM, active compounds read high
This is part of a sample that, as a whole, favours compounds with a hit. Of some 79,000 tested, about 15% had one in any assay.

>  <compound>
C=CCNC(=S)N(C)Cc1ccccc1Cl

>  <growth inhibition, %>
36.4

$$$$
>  <compound>
COC(c1ccccc1)(c1ccccc1)c1cc(NS(=O)(=O)c2ccccc2)ccc1NS(=O)(=O)c1ccccc1

>  <growth inhibition, %>
-4.7

$$$$
>  <compound>
CSc1n[nH]c(SC)n1

>  <growth inhibition, %>
-11.2

$$$$
>  <compound>
Nc1nc(Nc2ccccc2)nc(SCc2ccccc2)n1

>  <growth inhibition, %>
0.15

$$$$
>  <compound>
O=C1CC=C2C3CC4N(CCC45c4ccccc4N1C25)C/C3=C\CBr (configuration not stated)

>  <growth inhibition, %>
7.2

$$$$
>  <compound>
CC1(C)C/C(=C/c2ccccc2)C(=O)O1

>  <growth inhibition, %>
-4.05

$$$$
>  <compound>
O=C(Nc1ccc(Cl)cc1C(F)(F)F)C(=O)C1CCCS1(=O)=O (configuration not stated)

>  <growth inhibition, %>
-6.4

$$$$
>  <compound>
CN(C)C(=S)/N=c1\ss/c(=N\C(=S)N(C)C)n1C1CCCCC1

>  <growth inhibition, %>
-18.6

$$$$
>  <compound>
CC(=O)OCc1cn(S(=O)(=O)c2ccc(C)cc2)cn1

>  <growth inhibition, %>
11.6

$$$$
>  <compound>
CC1=Nc2c([nH]c(=S)[nH]c2=O)NC(c2c(Cl)cccc2Cl)C1 (configuration not stated)

>  <growth inhibition, %>
-4.5

$$$$
>  <compound>
COc1ccc(C(CCl)(CCl)c2ccc(OC)c(C)c2)cc1C

>  <growth inhibition, %>
5.3

$$$$
>  <compound>
CC1OC(Cc2ccccc2)OC1C (configuration not stated)

>  <growth inhibition, %>
12.6

$$$$
